Measured MIC accompanies every entry in the list below.
# Tested on: H. influenzae
# ASSAY: MIC, broth microdilution
# Assay type: cell-based, Haemophilus influenzae
# MEASUREMENT_CONDITIONS: H. influenzae ATCC49247, Azi-S
MEASUREMENT_TYPE: MIC (µg/mL)

# COMPOUND, CENSOR_SYMBOL, MEAS_VALUE
records = [
    ("CC[C@H]1OC(=O)[C@H](C)[C@@H](OC(=O)NCCCCCC#Cc2ccc3c(c2)c(=O)c(C(=O)O)cn3C2CC2)[C@H](C)[C@@H](O[C@@H]2O[C@H](C)C[C@H](N(C)C)[C@H]2O)[C@](C)(O)C[C@@H](C)CN(C)[C@H](C)[C@H]2OC(=O)O[C@@]21C [110a]", "=", 32),
    ("CC[C@H]1OC(=O)[C@H](C)[C@@H](OC(=O)NCCCCCCCCc2ccc3c(c2)c(=O)c(C(N)=O)cn3C2CC2)[C@H](C)[C@@H](O[C@@H]2O[C@H](C)C[C@H](N(C)C)[C@H]2O)[C@](C)(OC)C[C@@H](C)C(=NOC)[C@H](C)[C@H]2OC(=O)O[C@@]21C [62b]", ">", 256),
    ("CC[C@H]1OC(=O)[C@H](C)[C@@H](OC(=O)NCCCCCC#Cc2ccc3c(=O)c(C(=O)O)cn(C4CC4)c3c2)[C@H](C)[C@@H](O[C@@H]2O[C@H](C)C[C@H](N(C)C)[C@H]2O)[C@](C)(O)C[C@@H](C)CN(C)[C@H](C)[C@H]2OC(=O)O[C@@]21C [110c]", "=", 8),
    ("CC[C@H]1OC(=O)[C@H](C)[C@@H](OC(=O)NCCCCCCC#Cc2ccc3c(=O)[nH]cnc3c2)[C@H](C)[C@@H](O[C@@H]2O[C@H](C)C[C@H](N(C)C)[C@H]2O)[C@](C)(OC)C[C@@H](C)C(=O)[C@H](C)[C@H]2NC(=O)O[C@@]21C [88k]", "=", 64),
]

====

# Tested on: S. aureus
# ASSAY: MIC, broth microdilution
# Type: cell-based, Staphylococcus aureus
# MEASUREMENT_CONDITIONS: Staphylococcus aureus, S. aureus 15B196, c-ermB; read-out: MIC
Measured MIC accompanies every entry in the list below.
MEASUREMENT_TYPE: MIC (µg/mL)

# COMPOUND, TARGET_SYSTEM, MEAS_VALUE
rows = [
    ("CCC1OC(=O)C(C)C(OC(=O)NCCOCCCC#Cc2ccc3c(=O)c(C(=O)O)cn(C4CC4)c3c2)C(C)C(OC2OC(C)CC(N(C)C)C2O)C(C)(OC)CC(C)C(=NOC)C(C)C2OC(=O)OC12C (stereo not shown) [71c]", "S. aureus", 256),
    ("CCC1OC(=O)C(C)C(OC(=O)NCCCCCCCc2ccc3c(=O)c(C(=O)O)cn(C4CC4)c3c2)C(C)C(OC2OC(C)CC(N(C)C)C2O)C(C)(OC)CC(C)C(=NOC)C(C)C2OC(=O)OC12C (stereo not shown) [61c]", "S. aureus", 64),
    ("CC[C@H]1OC(=O)[C@H](C)[C@@H](OC(=O)NCCCOCCC#Cc2ccc3c(=O)c(C(=O)O)c[nH]c3c2)[C@H](C)[C@@H](O[C@@H]2O[C@H](C)C[C@H](N(C)C)[C@H]2O)[C@](C)(OC)C[C@@H](C)C(=O)[C@H](C)[C@H]2NC(=O)O[C@@]21C [95i]", "S. aureus", 128),
    ("CCC1OC(=O)C(C)C(OC(=O)NCCCCCCCc2ccc3c(c2)c(=O)c(C(=O)O)cn3C2CC2)C(C)C(OC2OC(C)CC(N(C)C)C2O)C(C)(OC)CC(C)C(=NOC)C(C)C2OC(=O)OC12C (stereo not shown) [61a]", "S. aureus", 256),
]
